method notes: reversal of MRP1-mediated doxorubicin resistance, pilot screen, H69AR cells, doxorubicin co-treatment (AID 601)
study conditions: H69AR cells + 2 uM doxorubicin, CellTiter-Glo, 72 h; measured here: viability with 2 uM doxorubicin; at 10 µM; stronger effect = lower value
One threshold, 90%, splits the recorded viability values: lower ones are true, equal or higher ones are false.

{"compound": "Cc1ccc(S(=O)(=O)N2CCN(S(=O)(=O)N(C)C)CC2)cc1", "category label": "false"}
{"compound": "CCCCCCn1c(CN2CCCC(C)C2)nc2c1c(=O)n(C)c(=O)n2C (stereo not drawn)", "category label": "false"}
{"compound": "Cc1cc2ncn(S(=O)(=O)c3ccc(S(=O)(=O)N4CCOCC4)cc3)c2cc1C", "category label": "false"}
{"compound": "O=c1c2ccccc2c(C=Nc2ccc(Cl)cn2)c(O)n1-c1cc(Cl)ccc1N1CCOCC1", "category label": "true"}
{"compound": "CCOC(=O)N1CCC(N(C(=O)Nc2cccc(OC)c2)C(C)CC)CC1 (stereo not drawn)", "category label": "false"}
{"compound": "COC(=O)CSc1nnc(-c2ccc(OC)cc2OC)o1", "category label": "false"}
{"compound": "COc1ccc(Cl)c(NC(=O)NCCN2CCN(c3ccccc3)CC2)c1", "category label": "true"}
{"compound": "CN(C)/C=c1\\sc2c(C#N)cc(C(=O)c3ccc(Br)cc3)n2c1=O", "category label": "true"}
{"compound": "COC(=O)/C=c1\\sc2ncnn2c1=O", "category label": "true"}
{"compound": "Nc1ccc(Sc2nnnn2-c2ccccc2)c(Cl)c1", "category label": "false"}
{"compound": "Clc1cccc(Cl)c1COc1ccncc1", "category label": "false"}

The measured values listed here are drawn from PubChem BioAssay.
